Biological target: GST-Ap-NF-kB RHD (Exaiptasia pallida (Aiptasia), UniProt A0A913YAJ5 2-422)
Sequence: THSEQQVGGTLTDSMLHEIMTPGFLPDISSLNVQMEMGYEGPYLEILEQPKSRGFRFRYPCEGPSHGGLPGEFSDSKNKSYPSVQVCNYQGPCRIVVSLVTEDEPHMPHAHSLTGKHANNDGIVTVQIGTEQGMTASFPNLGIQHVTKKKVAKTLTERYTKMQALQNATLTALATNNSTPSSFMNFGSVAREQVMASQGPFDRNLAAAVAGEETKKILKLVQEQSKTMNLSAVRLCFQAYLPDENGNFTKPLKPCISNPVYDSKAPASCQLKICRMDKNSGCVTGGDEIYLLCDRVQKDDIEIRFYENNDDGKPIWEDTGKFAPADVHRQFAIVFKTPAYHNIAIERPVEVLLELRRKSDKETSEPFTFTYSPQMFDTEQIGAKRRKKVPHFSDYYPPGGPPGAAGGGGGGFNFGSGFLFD
Assay: protein-binding microarray (PBM); PBM: ~300 nM protein, 6 mM HEPES pH 7.8, 80 mM KCl, 0.5 mM EDTA, 0.5 mM EGTA, 6% glycerol, 35 ng/ul poly-dIdC, 1% milk, 1 h, room temperature; high values mean tight binding
Conditions: dsDNA, one strand shown
recordedEndpoint: binding signal (z-score)
Express the result in z-score but write the number alone.

Recorded binding signal, per entry:
CCGATTAACATCAACCCCCCCCCTGATGTTAATCGGGTCTTGATTCGCTTGACGCTGCTG | 5.71
CCGATTAACATCAGAATTTTCCCTGATGTTAATCGGGTCTTGATTCGCTTGACGCTGCTG | 4.45
CCGATTAACATCAGGGCTTCCCATGATGTTAATCGGGTCTTGATTCGCTTGACGCTGCTG | 1.44

Ask: Name the recorded binding signal of the sequence listed here: CCGATTAACATCAAGGTAATTCCTGATGTTAATCGGGTCTTGATTCGCTTGACGCTGCTG
Result: 1.69

Ask: # return recorded binding signal for input CCGATTAACATCAGGGAGCTACCTGATGTTAATCGGGTCTTGATTCGCTTGACGCTGCTG
Result: 2.89

----------
Target: GST-Hu-p50 (Homo sapiens, UniProt P19838 7-356)
Sequence (P19838 7-356): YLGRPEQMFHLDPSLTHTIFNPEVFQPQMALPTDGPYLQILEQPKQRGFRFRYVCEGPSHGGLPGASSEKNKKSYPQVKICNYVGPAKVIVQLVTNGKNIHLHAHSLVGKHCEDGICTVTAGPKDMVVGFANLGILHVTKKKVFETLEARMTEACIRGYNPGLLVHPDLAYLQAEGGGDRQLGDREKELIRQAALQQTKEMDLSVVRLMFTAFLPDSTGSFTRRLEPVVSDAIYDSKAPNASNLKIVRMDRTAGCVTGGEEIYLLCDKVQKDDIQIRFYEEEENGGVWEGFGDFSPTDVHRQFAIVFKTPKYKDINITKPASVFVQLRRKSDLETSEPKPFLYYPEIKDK
Assay: protein-binding microarray (PBM); PBM: ~300 nM protein, 6 mM HEPES pH 7.8, 80 mM KCl, 0.5 mM EDTA, 0.5 mM EGTA, 6% glycerol, 35 ng/ul poly-dIdC, 1% milk, 1 h, room temperature; high values mean tight binding
Conditions: dsDNA, one strand shown
recordedEndpoint: binding signal

Ask: Specify binding signal for CCGATTAACATCAGAATATCCCCTGATGTTAATCGGGTCTTGATTCGCTTGACGCTGCTG and stop.
Result: 5.75 z-score

----------
Molecular target: GST-Dm-Relish (Drosophila melanogaster, UniProt Q94527 99-473)
Sequence: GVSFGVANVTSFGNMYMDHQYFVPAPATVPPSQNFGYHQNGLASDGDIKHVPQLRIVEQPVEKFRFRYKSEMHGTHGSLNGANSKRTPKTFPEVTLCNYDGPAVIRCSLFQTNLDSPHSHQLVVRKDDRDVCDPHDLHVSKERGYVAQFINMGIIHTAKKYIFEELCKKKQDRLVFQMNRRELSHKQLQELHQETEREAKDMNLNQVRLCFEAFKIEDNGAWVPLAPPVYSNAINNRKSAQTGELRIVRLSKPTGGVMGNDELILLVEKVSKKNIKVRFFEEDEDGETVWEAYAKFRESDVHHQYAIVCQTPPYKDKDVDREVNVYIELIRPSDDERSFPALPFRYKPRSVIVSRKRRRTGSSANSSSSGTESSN
Experiment: protein-binding microarray (PBM); PBM: ~300 nM protein, 6 mM HEPES pH 7.8, 80 mM KCl, 0.5 mM EDTA, 0.5 mM EGTA, 6% glycerol, 35 ng/ul poly-dIdC, 1% milk, 1 h, room temperature; high values mean tight binding
Conditions: dsDNA, one strand shown
recordedEndpoint: binding signal (z-score)
Value expressed in z-score; do not type the unit.

CCGATTAACATCAGGCAATCCCATGATGTTAATCGGGTCTTGATTCGCTTGACGCTGCTG | 2.82
CCGATTAACATCAGGAAAGCACCTGATGTTAATCGGGTCTTGATTCGCTTGACGCTGCTG | 6.13

Now look at this one.
Ask: Quickly give me recorded binding signal for CCGATTAACATCAGGATTTTCCCTGATGTTAATCGGGTCTTGATTCGCTTGACGCTGCTG
Result: 4.83

----------
Biological target: GST-Co-NF-kB (Capsaspora owczarzaki, UniProt F1ARL5 200-546)
Sequence: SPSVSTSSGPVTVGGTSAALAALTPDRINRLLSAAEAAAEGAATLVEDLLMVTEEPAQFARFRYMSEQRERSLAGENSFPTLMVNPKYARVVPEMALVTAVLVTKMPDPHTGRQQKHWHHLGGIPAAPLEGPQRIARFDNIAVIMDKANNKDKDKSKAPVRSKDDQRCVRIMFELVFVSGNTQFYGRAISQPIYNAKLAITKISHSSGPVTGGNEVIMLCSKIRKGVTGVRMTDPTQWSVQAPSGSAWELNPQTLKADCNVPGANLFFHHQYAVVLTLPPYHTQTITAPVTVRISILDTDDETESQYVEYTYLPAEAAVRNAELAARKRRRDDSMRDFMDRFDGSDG
Test: protein-binding microarray (PBM); PBM: ~300 nM protein, 6 mM HEPES pH 7.8, 80 mM KCl, 0.5 mM EDTA, 0.5 mM EGTA, 6% glycerol, 35 ng/ul poly-dIdC, 1% milk, 1 h, room temperature; high values mean tight binding
Conditions: dsDNA, one strand shown
Parameter: binding signal. Scope: all listed entries.
Note: unit z-score is implicit; provide only the numeric part.

In the examples that follow, each entry is paired with its recorded binding signal.
CCGATTAACATCAAGATTTCCCCTGATGTTAATCGGGTCTTGATTCGCTTGACGCTGCTG | 9.09
CCGATTAACATCACCCATTTCCCTGATGTTAATCGGGTCTTGATTCGCTTGACGCTGCTG | 3
CCGATTAACATCAGGGGGAATCATGATGTTAATCGGGTCTTGATTCGCTTGACGCTGCTG | 8.51
CCGATTAACATCACCTTCCCCCCTGATGTTAATCGGGTCTTGATTCGCTTGACGCTGCTG | 7.1

Ask: Supply binding signal measured with GST-Co-NF-kB (Capsaspora owczarzaki, UniProt F1ARL5 200-546) for CCGATTAACATCATGGTGGGAAATGATGTTAATCGGGTCTTGATTCGCTTGACGCTGCTG .
Result: 2.94

Ask: State, for GST-Co-NF-kB (Capsaspora owczarzaki, UniProt F1ARL5 200-546), measured binding signal of the sequence listed here: CCGATTAACATCAGACATTTCCCTGATGTTAATCGGGTCTTGATTCGCTTGACGCTGCTG
Result: 3.17

Ask: Jot down binding signal (GST-Co-NF-kB (Capsaspora owczarzaki, UniProt F1ARL5 200-546)) of CCGATTAACATCAGGGGAATAAATGATGTTAATCGGGTCTTGATTCGCTTGACGCTGCTG .
Result: 8.22

Ask: Look up and report binding signal, with GST-Co-NF-kB (Capsaspora owczarzaki, UniProt F1ARL5 200-546) as system, for CCGATTAACATCAGGGAAAAACCTGATGTTAATCGGGTCTTGATTCGCTTGACGCTGCTG
Result: 3.82

----------
Target: GST-Aq-NF-kB (Amphimedon queenslandica, UniProt A9Y5G7 2-389)
Sequence: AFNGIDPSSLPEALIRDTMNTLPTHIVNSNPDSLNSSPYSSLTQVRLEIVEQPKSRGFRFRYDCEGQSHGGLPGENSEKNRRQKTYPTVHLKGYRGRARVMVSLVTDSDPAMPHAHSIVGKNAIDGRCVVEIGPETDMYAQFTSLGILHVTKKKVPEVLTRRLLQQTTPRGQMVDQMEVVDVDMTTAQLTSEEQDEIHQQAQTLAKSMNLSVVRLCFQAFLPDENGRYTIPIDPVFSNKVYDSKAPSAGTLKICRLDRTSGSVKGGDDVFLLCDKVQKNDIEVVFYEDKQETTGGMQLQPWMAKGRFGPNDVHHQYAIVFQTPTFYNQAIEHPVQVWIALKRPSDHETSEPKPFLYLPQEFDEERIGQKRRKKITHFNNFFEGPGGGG
Assay: protein-binding microarray (PBM); PBM: ~300 nM protein, 6 mM HEPES pH 7.8, 80 mM KCl, 0.5 mM EDTA, 0.5 mM EGTA, 6% glycerol, 35 ng/ul poly-dIdC, 1% milk, 1 h, room temperature; Ap Aiptasia and Nv Nematostella (sea anemones) / Co Capsaspora / Aq Amphimedon (sponge) / Dm Drosophila / Hu human; RHD is the Rel homology domain; high values mean tight binding
Conditions: dsDNA, one strand shown
recordedEndpoint: binding signal

Reference set (3 entries):
CCGATTAACATCAGGAAAAATCCTGATGTTAATCGGGTCTTGATTCGCTTGACGCTGCTG | 1.79 z-score
CCGATTAACATCAGGACATACCCTGATGTTAATCGGGTCTTGATTCGCTTGACGCTGCTG | 5.54 z-score
CCGATTAACATCACCAGTTTCCCTGATGTTAATCGGGTCTTGATTCGCTTGACGCTGCTG | 2.6 z-score

Ask: Give the reported value of binding signal for this record: CCGATTAACATCAAAAATCCCCATGATGTTAATCGGGTCTTGATTCGCTTGACGCTGCTG
Result: 7.92 z-score

Ask: Item CCGATTAACATCAGGGGGTTAACTGATGTTAATCGGGTCTTGATTCGCTTGACGCTGCTG : provide binding signal
Result: 5.06 z-score

Ask: Annotate the sequence CCGATTAACATCAAAAAGCCCCCTGATGTTAATCGGGTCTTGATTCGCTTGACGCTGCTG with its measured binding signal.
Result: 8.57 z-score

Ask: Could you please provide reported binding signal for CCGATTAACATCAGGAAATTTCATGATGTTAATCGGGTCTTGATTCGCTTGACGCTGCTG ? Thanks!
Result: 1.4 z-score

Ask: Return value of binding signal for input CCGATTAACATCAATTTTTTCCCTGATGTTAATCGGGTCTTGATTCGCTTGACGCTGCTG , no commentary.
Result: 4.16 z-score

Ask: Return reported binding signal. Input sequence: CCGATTAACATCAAATAAATCCCTGATGTTAATCGGGTCTTGATTCGCTTGACGCTGCTG
Result: 5.06 z-score

Ask: Indicate the recorded binding signal value for this sequence: CCGATTAACATCAGGGGATTCTATGATGTTAATCGGGTCTTGATTCGCTTGACGCTGCTG
Result: 6.2 z-score

Ask: Please look at this sequence and report its binding signal: CCGATTAACATCAGGATTCCCCCTGATGTTAATCGGGTCTTGATTCGCTTGACGCTGCTG
Result: 8.67 z-score

Ask: Recall and state the measured binding signal for CCGATTAACATCACACCCCCCCCTGATGTTAATCGGGTCTTGATTCGCTTGACGCTGCTG .
Result: 4.16 z-score

Ask: Could you please provide reported binding signal for CCGATTAACATCAATTTTCCCACTGATGTTAATCGGGTCTTGATTCGCTTGACGCTGCTG ? Thanks!
Result: 3.35 z-score
